Attribution: ChEMBL document CHEMBL1641539

assay: Efflux ratio, ratio of permeability from apical to basolateral in MDCK2 cells over expressing MDR1 in presence of P-gp inhibitor to permeability from apical to basolateral in MDCK2 cells over expressing MDR1 in absence of P-gp inhibitor at 5 uM after 120 mins; format: ADME, cell-based, Canis lupus familiaris; conditions: dog, mdck-ii, 2 h
readout.kind: Ratio
Number only, no unit.

Form field: reported Ratio of O=c1[nH]nc(-c2ccnc(NC3CCOCC3)c2)n1-c1ccc2ccccc2c1
12

Form field: reported Ratio of O=c1n(C2CCOC2)nc(-c2ccnc(NC3CCOCC3)c2)n1-c1ccc2ccccc2c1 (stereo not given)
1.6

Form field: reported Ratio of O=c1[nH]nc(-c2ccnc(NC3CCCCC3)c2)n1-c1ccc2ccccc2c1
2.6

Form field: reported Ratio of O=c1n(-c2ccccn2)nc(-c2ccnc(NC3CCOCC3)c2)n1-c1ccc2ccccc2c1
1.5

Form field: reported Ratio of O=c1n(Cc2ccccn2)nc(-c2ccnc(NC3CCOCC3)c2)n1-c1ccc2ccccc2c1
1.4

----------
Consider the following compounds; for each one, report its inhibition.
target: Proto-oncogene tyrosine-protein kinase receptor Ret (Homo sapiens) (UniProt P07949); assay: Inhibition of RET at 10 uM after 60 mins by TR-FRET assay
Sequence (P07949 whole entry): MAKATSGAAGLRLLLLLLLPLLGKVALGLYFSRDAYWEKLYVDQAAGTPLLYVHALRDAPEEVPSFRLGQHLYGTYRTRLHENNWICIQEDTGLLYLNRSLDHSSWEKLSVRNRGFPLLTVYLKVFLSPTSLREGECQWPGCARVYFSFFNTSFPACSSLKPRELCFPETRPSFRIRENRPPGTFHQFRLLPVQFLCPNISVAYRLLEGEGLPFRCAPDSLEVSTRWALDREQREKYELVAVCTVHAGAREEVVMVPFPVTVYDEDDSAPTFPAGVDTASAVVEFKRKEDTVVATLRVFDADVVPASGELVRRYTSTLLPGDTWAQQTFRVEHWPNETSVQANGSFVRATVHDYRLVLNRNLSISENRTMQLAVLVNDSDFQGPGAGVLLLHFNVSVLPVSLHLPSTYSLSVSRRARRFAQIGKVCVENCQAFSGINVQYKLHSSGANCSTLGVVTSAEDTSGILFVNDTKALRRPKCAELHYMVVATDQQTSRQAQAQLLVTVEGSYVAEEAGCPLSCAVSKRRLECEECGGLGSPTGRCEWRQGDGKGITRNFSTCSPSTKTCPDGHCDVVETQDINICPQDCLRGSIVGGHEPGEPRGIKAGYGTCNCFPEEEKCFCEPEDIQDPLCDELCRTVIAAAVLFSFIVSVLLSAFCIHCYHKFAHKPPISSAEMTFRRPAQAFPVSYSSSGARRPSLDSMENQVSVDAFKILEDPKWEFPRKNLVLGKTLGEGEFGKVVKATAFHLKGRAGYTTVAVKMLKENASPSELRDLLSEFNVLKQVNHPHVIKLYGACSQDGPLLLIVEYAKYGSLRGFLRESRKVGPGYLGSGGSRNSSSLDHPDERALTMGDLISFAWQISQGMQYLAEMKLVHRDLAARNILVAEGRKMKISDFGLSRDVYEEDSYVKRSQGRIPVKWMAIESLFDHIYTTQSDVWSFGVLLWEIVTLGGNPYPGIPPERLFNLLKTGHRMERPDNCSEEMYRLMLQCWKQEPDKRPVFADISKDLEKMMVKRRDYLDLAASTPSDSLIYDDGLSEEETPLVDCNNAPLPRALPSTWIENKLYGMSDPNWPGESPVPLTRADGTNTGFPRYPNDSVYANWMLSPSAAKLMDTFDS
Give the value, in units of %, as a plain number.

Form field: reported inhibition of O=c1[nH]nc(-c2ccnc(NC3CCCCC3)c2)n1-c1ccc2ccccc2c1
4

Form field: reported inhibition of O=c1n(Cc2ccncc2)nc(-c2ccnc(NC3CCCCC3)c2)n1-c1ccc2ccccc2c1
3

Form field: reported inhibition of O=c1[nH]nc(-c2ccnc(NC3CCOCC3)c2)n1-c1ccc2ccccc2c1
11

Form field: reported inhibition of O=c1n(Cc2ccccn2)nc(-c2ccnc(NC3CCOCC3)c2)n1-c1ccc2ccccc2c1
-1

Form field: reported inhibition of O=c1[nH]nc(-c2ccnc(NC3CCCOC3)c2)n1-c1ccc2ccccc2c1 (stereo unspecified)
37

Form field: reported inhibition of O=c1n(C2CCOCC2)nc(-c2ccnc(NC3CCCCC3)c2)n1-c1ccc2ccccc2c1
10

----------
Consider the following compounds; for each one, report its inhibition.
target: Insulin receptor (Homo sapiens) (UniProt P06213); assay: Inhibition of INSR at 10 uM after 60 mins by TR-FRET assay
Sequence (P06213 28-758 limits assumed): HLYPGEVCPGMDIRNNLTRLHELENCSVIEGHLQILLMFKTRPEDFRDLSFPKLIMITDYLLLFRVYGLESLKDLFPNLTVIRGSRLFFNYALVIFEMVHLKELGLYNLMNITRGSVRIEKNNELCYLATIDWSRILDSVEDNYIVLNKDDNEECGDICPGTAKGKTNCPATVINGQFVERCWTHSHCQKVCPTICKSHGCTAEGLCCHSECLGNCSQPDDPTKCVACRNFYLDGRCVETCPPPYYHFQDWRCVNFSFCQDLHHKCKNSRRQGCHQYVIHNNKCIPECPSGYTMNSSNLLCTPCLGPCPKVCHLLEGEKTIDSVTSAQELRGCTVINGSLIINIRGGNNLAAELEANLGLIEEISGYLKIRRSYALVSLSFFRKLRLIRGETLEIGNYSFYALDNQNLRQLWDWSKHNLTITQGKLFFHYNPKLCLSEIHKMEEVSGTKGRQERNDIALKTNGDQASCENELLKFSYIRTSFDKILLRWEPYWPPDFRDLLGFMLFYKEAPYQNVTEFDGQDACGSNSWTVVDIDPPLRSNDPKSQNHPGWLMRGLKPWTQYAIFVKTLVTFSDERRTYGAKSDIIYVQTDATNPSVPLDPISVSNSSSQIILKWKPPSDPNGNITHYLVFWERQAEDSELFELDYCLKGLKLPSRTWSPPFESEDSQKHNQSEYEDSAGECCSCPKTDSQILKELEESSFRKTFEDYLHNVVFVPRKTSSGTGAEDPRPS
Sequence (P06213 763-1382 limits assumed): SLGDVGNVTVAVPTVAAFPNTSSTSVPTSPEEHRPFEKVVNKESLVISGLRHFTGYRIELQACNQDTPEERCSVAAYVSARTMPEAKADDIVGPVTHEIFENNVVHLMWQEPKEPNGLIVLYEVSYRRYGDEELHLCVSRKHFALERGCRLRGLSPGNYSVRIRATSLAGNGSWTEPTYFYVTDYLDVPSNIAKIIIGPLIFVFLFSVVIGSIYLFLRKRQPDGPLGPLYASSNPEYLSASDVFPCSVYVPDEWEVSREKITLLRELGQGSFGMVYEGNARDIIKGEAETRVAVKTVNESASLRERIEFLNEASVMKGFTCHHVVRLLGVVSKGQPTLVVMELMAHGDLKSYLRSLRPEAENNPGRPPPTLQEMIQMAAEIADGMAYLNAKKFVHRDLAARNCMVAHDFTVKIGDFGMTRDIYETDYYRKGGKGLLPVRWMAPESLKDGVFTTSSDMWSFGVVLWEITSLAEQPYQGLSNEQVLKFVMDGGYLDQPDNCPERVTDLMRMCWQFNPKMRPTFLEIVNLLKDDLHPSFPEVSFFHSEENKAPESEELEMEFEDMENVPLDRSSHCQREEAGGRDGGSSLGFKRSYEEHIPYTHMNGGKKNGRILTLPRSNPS

Form field: reported inhibition of O=c1[nH]nc(-c2ccnc(NC3CCCOC3)c2)n1-c1ccc2ccccc2c1 (stereo unspecified)
18%

Form field: reported inhibition of O=c1n(Cc2ccncc2)nc(-c2ccnc(NC3CCCCC3)c2)n1-c1ccc2ccccc2c1
2%

Form field: reported inhibition of O=c1[nH]nc(-c2ccnc(NC3CCCCC3)c2)n1-c1ccc2ccccc2c1
5%

Form field: reported inhibition of O=c1[nH]nc(-c2ccnc(NC3CCOCC3)c2)n1-c1ccc2ccccc2c1
8%

Form field: reported inhibition of O=c1n(Cc2ccccn2)nc(-c2ccnc(NC3CCOCC3)c2)n1-c1ccc2ccccc2c1
7%

Form field: reported inhibition of O=c1n(C2CCOCC2)nc(-c2ccnc(NC3CCCCC3)c2)n1-c1ccc2ccccc2c1
10%

----------
test: Oxidative metabolic stability in human liver microsomes assessed as compound remaining at 2 uM after 30 mins; format: ADME, Microsome; settings: read-out: Stability
readout.kind: remaining at 0.5 h, 2 µM (%)
Give the value, in units of %, as a plain number.

Form field: reported remaining at 0.5 h, 2 µM of O=c1n(Cc2ccncc2)nc(-c2ccnc(NC3CCCCC3)c2)n1-c1ccc2ccccc2c1
2

Form field: reported remaining at 0.5 h, 2 µM of O=c1[nH]nc(-c2ccnc(NC3CCOCC3)c2)n1-c1ccc2ccccc2c1
73

Form field: reported remaining at 0.5 h, 2 µM of O=c1[nH]nc(-c2ccnc(NC3CCOCC3)c2)n1-c1ccc2cc(F)ccc2c1
88

Form field: reported remaining at 0.5 h, 2 µM of O=c1n(Cc2ccccn2)nc(-c2ccnc(NC3CCOCC3)c2)n1-c1ccc2ccccc2c1
40

Form field: reported remaining at 0.5 h, 2 µM of O=c1n(C2CCOC2)nc(-c2ccnc(NC3CCOCC3)c2)n1-c1ccc2ccccc2c1 (configuration not stated)
27

Form field: reported remaining at 0.5 h, 2 µM of O=c1n(-c2ccccn2)nc(-c2ccnc(NC3CCOCC3)c2)n1-c1ccc2ccccc2c1
59

Form field: reported remaining at 0.5 h, 2 µM of O=c1[nH]nc(-c2ccnc(NC3CCCCC3)c2)n1-c1ccc2ccccc2c1
57
